# system.name: T1, SHANK1, Q9Y566
# T1 sequence (Q9Y566 658-767, limits assumed, looked up): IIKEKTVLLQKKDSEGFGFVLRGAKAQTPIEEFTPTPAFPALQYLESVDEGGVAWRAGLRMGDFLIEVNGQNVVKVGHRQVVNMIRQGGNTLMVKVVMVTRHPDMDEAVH
# assay.method.text: holdup assay
# Design: key: below the threshold = too weak to quantify, mostly under pKd 3.1 to 4
# test.parameters: plain residues with an end cap or a label only (N-terminal biotin on a linker: ado-ado)
measurement.name: pKd

SLNANEVEWF [RNF130, Q86XS8]	3.82
ARGPPRESEV [FAM110D, Q8TAY7]	below the threshold
GEDRSPPTAL [MKNK1, Q9BUB5]	below the threshold
KRPEMTSSSV [MUC3A, MUC3B, Q02505;Q9H195]	3.92
